Cited source: paper PMC4051630

Target: AKT3 Catalytic Domain (Homo sapiens)
Construct: AKT3 (Q9Y243); CD; His-tag; made in house; host or cells: Escherichia coli
Sequence (Q9Y243 122-479): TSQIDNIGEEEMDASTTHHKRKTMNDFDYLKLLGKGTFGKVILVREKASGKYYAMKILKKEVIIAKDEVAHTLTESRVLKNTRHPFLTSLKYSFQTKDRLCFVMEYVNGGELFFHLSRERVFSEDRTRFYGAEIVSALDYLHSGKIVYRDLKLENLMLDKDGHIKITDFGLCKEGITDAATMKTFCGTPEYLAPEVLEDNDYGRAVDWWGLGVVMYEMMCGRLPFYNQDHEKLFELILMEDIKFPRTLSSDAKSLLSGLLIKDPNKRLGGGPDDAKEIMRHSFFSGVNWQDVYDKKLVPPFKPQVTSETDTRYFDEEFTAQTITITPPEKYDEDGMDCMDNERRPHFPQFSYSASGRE
Assay: Differential Scanning Fluorimetry (DSF) Tm shift
Type: binding
Settings: 2 µM protein, 10 µM inhibitor, average of 3 experiments, each in duplicate
Would you mind telling me the reported Melting temperature (Tm) shift of each entry?
Numbers only, in degrees Celcius.

These recorded examples may help you get a feel for the data.
CN(C)CCCn1cc(C2=C(c3c[nH]c4ccccc34)C(=O)NC2=O)c2ccccc21 [Bisindolylmaleimide I]	0.4
O=C1NC(=O)c2c1c1c3ccccc3[nH]c1c1[nH]c3ccccc3c21 [Arcyriaflavin A, Synthetic, Arcyriaflavin A]	0.0
O=C1NC(=O)C(=Cc2ccc3c(c2)OCO3)S1	0.0
CCCCn1c2ccc(O)cc2c2c3c(c(-c4ccccc4Cl)cc21)C(=O)NC3=O	0.1
Brc1c(Br)c(Br)c2n[nH]nc2c1Br	0.1
O=C1Cc2c([nH]c3ccc(Br)cc23)-c2ccccc2N1	0.0

Below are 5 molecules. Give each one its Melting temperature (Tm) shift.
1. Cn1cc(/C=C2\C(=O)Nc3ccc(S(N)(=O)=O)cc32)c2ccccc21
2. O=C1c2ccccc2-c2n[nH]c3cccc1c23
3. Nc1cccc(-c2cc3c(Oc4cccc(O)c4)ncnc3[nH]2)c1
4. Cl.Cl.O=S(=O)(NCCNC/C=C/c1ccc(Br)cc1)c1cccc2cnccc12 [H-89, Dihydrochloride]
5. O=C1NC(=O)c2c1c1c3ccccc3[nH]c1n1cncc21 [Isogranulatimide]

Return:
0.0
0.1
0.1
0.3
2.9

Each of the following entries comes with a recorded value; kindly state Melting temperature (Tm) shift for each.
1. Cl.Cl.NCCNc1ncc(C(N)=O)c(Nc2cccc(C(F)(F)F)c2)n1
2. O=c1c(O)c(-c2ccc(O)c(O)c2)oc2cc(O)c(O)c(O)c12
3. c1cc(-c2cnn3cc(-c4ccc(OCCN5CCCCC5)cc4)cnc23)ccn1
4. CS(=O)(=O)O.Cn1cc(C2=C(c3cn(CCCSC(=N)N)c4ccccc34)C(=O)NC2=O)c2ccccc21
5. O=C1NC(=O)C(c2c[nH]c3ccccc23)=C1c1c[nH]c2ccccc12 [Bisindolylmaleimide IV]
6. O=C(c1cc2cc(O)ccc2[nH]1)c1cc2cc(O)ccc2[nH]1

Return:
1. 0.0
2. 2.5
3. 0.3
4. 1.6
5. 0.0
6. 0.1

Provide the reported Melting temperature (Tm) shift of each entry below, same order.
1. O=C1NC(=O)/C(=C/c2ccc3nccnc3c2)S1
2. CCn1cnc2c(Nc3cccc(Cl)c3)nc(N[C@H]3CCCC[C@H]3N)nc21 [Cdk1 Inhibitor, CGP74514A]
3. O=C1Cc2c([nH]c3ccc([N+](=O)[O-])cc23)-c2ccccc2N1
4. O.O=C1NCCc2[nH]c(-c3ccnc(-c4cnc5ccccc5c4)c3)cc21
5. N#CCCc1ccc2c(c1)-c1[nH]c3ccc([N+](=O)[O-])cc3c1CC(=O)N2
6. Cc1ccc([N+](=O)[O-])cc1S(=O)(=O)N(C)N=Cc1cnc2ccc(Br)cn12.Cl.O.O
7. Cc1cc(Nc2nc(-c3ccccc3)nc3ccccc23)n[nH]1
8. CN[C@@H]1C[C@H]2O[C@@](C)([C@@H]1OC)n1c3ccccc3c3c4c(c5c6ccccc6n2c5c31)C(=O)N[C@@H]4O

Return:
[0.0, 0.0, 0.1, 0.0, 0.1, 1.3, 0.2, 3.2]

Provide Melting temperature (Tm) shift for all items below, preserving their order.
1. O=C1c2ccccc2-[n+]2ccc3c([nH]c4ccccc43)c21 [Fascaplysin, Synthetic, Fascaplysin]
2. O=C(c1ccc(Nc2nccc(-c3cc4ccccc4s3)n2)cc1)N1CCC(N2CCCC2)CC1
3. Cc1[nH]c(/C=C2\C(=O)Nc3ccc(S(=O)(=O)N(C)c4cccc(Cl)c4)cc32)c(C)c1C(=O)N1CCN(C)CC1
4. Nc1ncnc2c1c(I)cn2[C@@H]1O[C@H](CO)[C@@H](O)[C@H]1O
5. COc1cc2ncnc(Nc3ccc(OCc4ccccc4)cc3)c2cc1OC
6. NC(=O)Nc1sc(-c2ccccc2)cc1C(N)=O

Return:
0.1
0.2
0.0
0.0
0.1
0.0

Enquiry: Look up Melting temperature (Tm) shift for this molecule: `O=C1NC(=O)C(=Cc2cccc(C(F)(F)F)c2)S1`
Return: 0.1
